Measured pIC50, listed per entry.
# assayTarget: UniProtKB P04629
# Sequence (P04629 33-796): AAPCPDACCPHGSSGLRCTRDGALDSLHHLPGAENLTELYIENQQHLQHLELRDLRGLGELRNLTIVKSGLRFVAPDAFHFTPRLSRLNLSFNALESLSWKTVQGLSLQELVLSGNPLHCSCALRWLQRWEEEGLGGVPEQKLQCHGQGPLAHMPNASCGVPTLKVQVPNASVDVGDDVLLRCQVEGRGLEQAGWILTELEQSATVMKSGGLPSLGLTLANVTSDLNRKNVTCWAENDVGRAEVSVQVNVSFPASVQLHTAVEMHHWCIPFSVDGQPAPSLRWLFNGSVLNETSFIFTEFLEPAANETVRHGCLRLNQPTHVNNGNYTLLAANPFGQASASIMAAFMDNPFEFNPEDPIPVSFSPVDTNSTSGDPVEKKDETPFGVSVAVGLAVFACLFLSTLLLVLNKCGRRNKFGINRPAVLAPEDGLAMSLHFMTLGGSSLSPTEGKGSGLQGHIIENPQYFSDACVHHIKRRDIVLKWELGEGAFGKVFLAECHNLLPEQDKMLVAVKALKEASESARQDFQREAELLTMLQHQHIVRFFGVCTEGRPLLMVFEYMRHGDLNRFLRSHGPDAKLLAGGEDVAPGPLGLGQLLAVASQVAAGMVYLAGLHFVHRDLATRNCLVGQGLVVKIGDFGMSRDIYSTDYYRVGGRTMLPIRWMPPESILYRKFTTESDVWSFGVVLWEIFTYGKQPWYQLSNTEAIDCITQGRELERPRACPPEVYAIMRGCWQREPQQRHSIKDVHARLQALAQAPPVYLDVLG
# assayText: DiscoverX PathHunter TrkA functional assay (NGF-stimulated U2OS cells)
# appliedConditions: U2OS cells expressing human TrkA-PK, Shc1-EA and p75NTR; compound 1 h, then NGF at ~80% of maximal response for 3 h; luminescence
pIC50: −log10 of the molar value.
endpointName: pIC50

1. CN1CC(=O)N(Cc2ncc(NC(=O)c3cc(-c4ccn(C)n4)c(C(F)(F)F)cc3F)c(-c3ccccc3)n2)C1=O : 9.96
2. Cn1ccc(-c2cc(C(=O)Nc3cc(C(N)=O)cnc3-c3ccccc3)ccc2C(F)(F)F)n1 : 8.82
3. Cn1ccc(-c2cc(C(=O)Nc3cnc(CN4CCN(S(C)(=O)=O)CC4)nc3-c3ccccc3)c(F)cc2C(F)(F)F)n1 : 8.29
4. Cn1ccc(-c2cc(C(=O)Nc3cc(S(C)(=N)=O)cnc3-c3ccccc3)c(F)cc2C(F)(F)F)n1 (stereo not shown) : 8.55
